Conditions: buffer; pH 7.4; 200.0 µM

# Compound, solubility kinetic
measured = [
    ("Cc1c(NS(=O)(=O)c2cccc(C(=O)N3CCCC3)c2)c(=O)n(-c2ccccc2)n1C", "> 66.1 µg/mL"),
    ("CCc1c(-c2ccccc2)nc2sc3c(c2c1N)CCCC3", "< 0.3 µg/mL"),
    ("CC1NC(=O)NC1CCCCCC(=O)Nc1ccc(F)c(Cl)c1 (stereo unspecified)", "> 51.3 µg/mL"),
    ("Cc1ccccc1NC(=S)NNC(=O)c1ccco1", "> 41.3 µg/mL"),
    ("CC(Cc1c[nH]c2ccccc12)NC(N)=O (stereo unspecified)", "> 32.6 µg/mL"),
    ("Cc1nc2c(C#N)cnn2c2c1CCN2CC1CCCO1 (stereo unspecified)", "> 42.5 µg/mL"),
    ("O=[N+]([O-])c1ncc(Br)cc1Nc1ccccc1", "16.3 µg/mL"),
    ("COc1ccc(NC(=O)Nc2cccc3ccccc23)cc1OC", "0.4 µg/mL"),
    ("OC(CN1CCC(Cc2ccccc2)CC1)c1ccccc1 (stereo unspecified)", "> 44.3 µg/mL"),
    ("Clc1nc(CN2CCCCC2)nc2sc3c(c12)CCC3", "> 46.2 µg/mL"),
    ("CC(C)(C)c1ccc(C(CC(=O)O)NC(=O)CSc2ccccc2)cc1 (stereo unspecified)", "> 55.7 µg/mL"),
    ("COc1ccc(NCc2cccnc2)cc1", "26.8 µg/mL"),
    ("Cc1ccc(-c2csc(NC(=O)C3CC(=O)N(Cc4ccco4)C3)n2)cc1 (stereo unspecified)", "12.1 µg/mL"),
    ("COc1ccccc1C(=O)O/N=C(\\N)c1ccccn1", "> 40.7 µg/mL"),
    ("CC(=O)c1ccc(NC(=O)N2C[C@H]3C[C@@H](C2)c2cccc(=O)n2C3)cc1", "> 52.7 µg/mL"),
    ("Cc1cccc(NS(=O)(=O)c2cccc([N+](=O)[O-])c2)n1", "> 44 µg/mL"),
    ("O=C(CSc1cc(Cl)ccc1Cl)NCCN1C(=O)CSC1=O", "> 56.9 µg/mL"),
    ("COc1ccc(CCNC(=O)CN2C(=O)NC3(CCCCC3)C2=O)cc1", "> 53.9 µg/mL"),
    ("O=C(Nc1cccc([N+](=O)[O-])c1)N1CCN(c2ccccc2)CC1", "3.6 µg/mL"),
    ("O=C(C1CCC1)N1CCN(c2ccc(Cl)cc2)CC1", "36.4 µg/mL"),
    ("COc1cccc2[nH]c(=O)c(-c3ccccc3)cc12", "1.4 µg/mL"),
    ("CCOc1ccc(N2C(=O)C(Cl)=C(N3CCOCC3)C2=O)cc1", "> 50.5 µg/mL"),
    ("Cc1ccc(S(=O)(=O)Nc2cccnc2)cc1C", "10.7 µg/mL"),
    ("O=C(O/N=C/c1ccc(Cl)cc1)C1CCCCC1", "2.4 µg/mL"),
    ("Cc1cc(C)cc(NC(=O)CN2CCN(C(=O)c3cccs3)CC2)c1", "> 53.6 µg/mL"),
    ("Cc1cc(C)c(S(=O)(=O)N2CCCC2)c(C)c1", "30.4 µg/mL"),
]

---

Settings: buffer; pH 7.4; 200.0 µM

# Compound, solubility kinetic
rows = [
    ("O=C(COC(=O)/C=C/c1ccc(F)cc1)NCC1CCCO1 (stereo not given)", "> 46.1 µg/mL"),
    ("COc1cc(OC)c(C(=O)OC(C)C(=O)NCc2ccc3c(c2)OCO3)cc1OC (stereo not given)", "> 62.6 µg/mL"),
    ("O=C(O)CCn1c(SCCOc2ccccc2F)nc2ccccc21", "> 54.1 µg/mL"),
    ("O=C(Nc1ccc(N2CCOCC2)nc1)c1cccs1", "> 43.4 µg/mL"),
    ("O=C(COc1ccc(Cl)cc1)NC1CC1", "> 33.9 µg/mL"),
    ("CC1(C(=O)O)CCC(C(=O)Nc2cccc(F)c2)C1(C)C (stereo not given)", "> 44 µg/mL"),
    ("O=C1NC(=O)C(C(CC(=O)c2ccccc2)c2ccccc2)C(=O)N1 (stereo not given)", "> 50.5 µg/mL"),
    ("COC(=O)c1ccccc1NC(=O)NN1CCN(C)CC1", "> 43.9 µg/mL"),
    ("Cc1ccc(-n2c(C)nc3cc(Cl)ccc3c2=O)nc1", "> 42.9 µg/mL"),
    ("CCOc1ccc(/C=C2\\SC(=O)N(c3ccc(O)cc3)C2=O)cc1OC", "< 0.8 µg/mL"),
    ("Cc1ccc(C#N)c(SCc2ccccc2F)n1", "< 0.3 µg/mL"),
    ("CC(C)N(CC#CC(O)(c1ccccc1)c1ccccc1)C(C)C", "> 48.2 µg/mL"),
    ("CCOc1ccc(/C=N/NC(=O)Cn2ccnc2C)cc1", "> 42.9 µg/mL"),
    ("COC(=O)c1c(NC(=O)C(C)C)sc(C(=O)N2CCOCC2)c1C", "> 53.2 µg/mL"),
    ("Cc1ccc(C(=O)Nc2cccnc2N2CCN(C)CC2)cc1", "> 46.6 µg/mL"),
    ("COCCNC(=S)NCc1cccs1", "31.9 µg/mL"),
    ("COC(=O)C1CCN(C(=O)CN2C(=O)NC(CC(C)C)C2=O)CC1 (stereo not given)", "> 50.9 µg/mL"),
    ("O=C(NC12CC3CC(CC(C3)C1)C2)c1ccc([N+](=O)[O-])o1", "34.9 µg/mL"),
    ("Oc1cccc(N2Cc3ccccc3C2)c1", "13 µg/mL"),
    ("CCC(=O)Nc1cccc2cccnc12", "25 µg/mL"),
]

---

Details: buffer; pH 7.4; 200.0 µM
The threshold is inclusive: solubility kinetic of exactly 20 µg/mL counts as rule met; values below receive rule not met.

# Compound, Assigned Class
records = [
    ("CCOCCn1c(SC(C)C(C)=O)nc2c1c(=O)[nH]c(=O)n2C (stereo not drawn)", "rule met"),
    ("O=C(CSc1nc2ncccc2[nH]1)c1ccc2c(c1)OCO2", "rule not met"),
    ("Cc1ccc2[nH]c3ccccc3c(=O)c2c1", "rule not met"),
    ("O=C(NC(=S)Nc1ccccc1[N+](=O)[O-])c1ccccc1", "rule not met"),
    ("O=C(Nc1ccc(Br)cc1)C1Cc2ccccc2O/C1=N\\O (stereo not drawn)", "rule not met"),
    ("CCOC(=O)c1cn(CC)c2c(ccc3ccccc32)c1=O", "rule not met"),
    ("NC(=[NH2+])SCc1[nH+]cccc1O.[Cl-]", "rule met"),
    ("CCOc1ccccc1OCCN1CCCC1", "rule met"),
    ("CC(C)c1ccc(N(C)C(=O)Cc2c(C(=O)O)n(C)c3ccccc23)cc1", "rule met"),
    ("O=C(Nc1cnccn1)c1ccc(F)cc1Cl", "rule met"),
    ("CC(C)CNC(=S)NC(=O)c1csc([N+](=O)[O-])c1", "rule not met"),
    ("CC1CC(C)CN(S(=O)(=O)c2cccc3nsnc23)C1 (stereo not drawn)", "rule not met"),
    ("Cc1ccccc1N1CC(C(=O)NC2CCCC2)CC1=O (stereo not drawn)", "rule met"),
    ("O=C(NC(=S)N1CCN(c2ccc(O)cc2)CC1)c1cccs1", "rule met"),
    ("CC(NC(=O)/C(C#N)=C/c1cccs1)c1ccccc1 (stereo not drawn)", "rule not met"),
    ("CCc1noc(C)c1C(=O)OCC(=O)Nc1ccc(F)cc1Cl", "rule not met"),
    ("CC1CC(NC(=O)CC#N)CC(C)(C)C1 (stereo not drawn)", "rule met"),
    ("CCOC(=O)CC(NC(=O)c1ccccc1)c1ccc(OC)cc1 (stereo not drawn)", "rule met"),
]

---

Details: buffer; pH 7.4; 200.0 µM
Form field: solubility kinetic (one value per entry).

# Smiles Str, solubility kinetic
rows = [
    ("O=C(c1cc2ccccc2o1)N1CCOCC1", "> 34.7 µg/mL"),
    ("C=CCn1c(SCc2ccc(C(=O)O)cc2)nc2sc(C)c(C)c2c1=O", "> 58 µg/mL"),
    ("CC(=O)OCc1c(C)cc(C)c(/C=C(/C#N)C(N)=O)c1C", "> 42.9 µg/mL"),
    ("O=c1[nH]c(/C=C\\c2ccc(O)c(O)c2)nc(O)c1[N+](=O)[O-]", "> 43.7 µg/mL"),
]

---

Overview of recorded solubility kinetic for various compounds
Details: buffer; pH 7.4; 200.0 µM
Measured Attribute: solubility kinetic

# Compound, Measured Attribute, Observed Measurement
rows = [
    ("Nc1ncc2[nH]cnc2n1.O=[N+]([O-])O", "solubility kinetic", "> 29.7 µg/mL"),
    ("Cc1cccc(S(=O)(=O)Nc2ccc(S(=O)(=O)Nc3nccs3)cc2)c1", "solubility kinetic", "> 61.4 µg/mL"),
    ("CC(C)c1ccc(NC2CCCN(C(=O)c3cccnc3)C2)cc1 (stereo unspecified)", "solubility kinetic", "> 48.5 µg/mL"),
    ("CC(C)S(=O)(=O)c1cnc(N2CCOCC2)nc1N", "solubility kinetic", "> 43 µg/mL"),
    ("CCOc1cc2c(cc1OC)C(NC(=O)c1ccco1)CC2=O (stereo unspecified)", "solubility kinetic", "> 47.3 µg/mL"),
    ("CCN(CC)C(=O)Cn1c(=O)oc2ccccc21", "solubility kinetic", "> 37.2 µg/mL"),
]
